Source of measurements: the supplement of paper PMC8967900

- Test system: MN-60;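 further: ALL cell lines in 384-well plates, five doses spanning 10,000-fold, each plate scaled between vehicle and 100 µmol/L benzalkonium chloride controls, sDSS an adapted area-under-curve metric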
- TEST_DESCRIPTION: selective drug sensitivity score (sDSS, relative to normal bone marrow) (sDSS (score)); higher = more potent and effective on the cell line relative to normal bone marrow cells
- EXPERIMENTAL_SETUP: 72 h
QUANTITY_NAME: selective drug sensitivity score

{"columns": ["COMPOUND", "VALUE_MEASURED"],
 "data": [
  ["O=c1[nH]c(=O)n([C@H]2C[C@H](O)[C@@H](CO)O2)cc1F [Floxuridine] (top concentration 10000 nM)", 10.3],
  ["COc1c(OCCCN2CCOCC2)ccc2c1N=C(NC(=O)c1cnc(N)nc1)N1CCN=C21 [Copanlisib] (top concentration 1000 nM)", 0.48],
  ["CNC(=O)c1cc(Oc2ccc(NC(=O)Nc3ccc(Cl)c(C(F)(F)F)c3)c(F)c2)ccn1 [Regorafenib] (top concentration 10000 nM)", 1.34],
  ["CN(C)CC#Cc1ccc(OCCCc2sc(N3CCc4cccc(C(=O)Nc5nc6ccccc6s5)c4C3)nc2C(=O)O)c(F)c1 (top concentration 10000 nM)", -3.64],
  ["CC1=C(/C=C/C(C)=C/C=C/C(C)=C/C(=O)O)C(C)(C)CCC1 [Tretinoin] (top concentration 10000 nM)", -2.4],
  ["NC(=O)NO [Hydroxyurea] (top concentration 1000000 nM)", -0.04],
  ["C1=N/C2=N/c3ccc(OCCN4CCCC4)c(c3)COC/C=C/COCc3cccc(c3)C(=C1)N2 [Pacritinib] (top concentration 10000 nM)", -9.6],
  ["CC(=O)N(O)CCCCCNC(=O)CCC(=O)N(O)CCCCCNC(=O)CCC(=O)N(O)CCCCCN [Deferoxamine] (top concentration 10000 nM)", 5.16],
  ["O=C(O)c1ccc(-c2c[nH]c3ncc(-c4ccccc4)cc23)cc1C1CCCC1 (top concentration 10000 nM)", -1.44],
  ["CN(C)C(=O)c1cc2cnc(Nc3ccc(N4CCNCC4)cn3)nc2n1C1CCCC1 [Ribociclib] (top concentration 10000 nM)", -1.62],
  ["CC[C@H](NC(=O)[C@H](C)NC)C(=O)N1C[C@@H](O)C[C@H]1Cc1c(-c2[nH]c3cc(F)ccc3c2C[C@@H]2C[C@H](O)CN2C(=O)[C@H](CC)NC(=O)[C@H](C)NC)[nH]c2cc(F)ccc12 [Birinapant] (top concentration 1000 nM)", 1.4],
  ["CCOC(=O)CCNc1cc(N2CCc3ccccc3CC2)nc(-c2ccccn2)n1 [GSK-J4] (top concentration 100000 nM)", -6.58],
  ["CC[C@H](C)C(=O)O[C@H]1C[C@@H](C)C=C2C=C[C@H](C)[C@H](CC[C@@H]3C[C@@H](O)CC(=O)O3)[C@H]21 [Lovastatin] (top concentration 10000 nM)", -0.1],
  ["Nc1nc2[nH]cnc2c(=S)[nH]1 [Thioguanine] (top concentration 10000 nM)", 10],
  ["Cn1cc(C2=C(c3cn(C4CCN(Cc5ccccn5)CC4)c4ccccc34)C(=O)NC2=O)c2ccccc21 [Enzastaurin] (top concentration 10000 nM)", 5.16],
  ["CC(=O)[C@]1(O)Cc2c(O)c3c(c(O)c2[C@@H](O[C@H]2C[C@H](N)[C@H](O)[C@H](C)O2)C1)C(=O)c1ccccc1C3=O [Idarubicin] (top concentration 1000 nM)", -2.26],
  ["COc1cc(OC2CCN(C)CC2)ccc1Nc1ncc2c(n1)n(C1CCCC1)c(=O)n2C [AZ3146] (top concentration 10000 nM)", -0.16],
  ["CN(C)Cc1c(C(=O)NCCOc2ccc(C(=O)NO)cc2)oc2ccccc12 [Abexinostat] (top concentration 10000 nM)", -3.04],
  ["CCNCCS(=O)(=O)NC[C@@]1(c2ccccc2)SC(NC(=O)C(C)(C)C)=NN1C(=O)C(C)(C)C [Litronesib] (top concentration 1000 nM)", 4.64],
  ["O=C(NC[C@H](O)CN1CCc2ccccc2C1)c1cc(NC2COC2)ncn1 (top concentration 10000 nM)", -0.06],
  ["CS(=O)(=O)c1ccc(-c2cnc(N)c(C(=O)Nc3ccccc3)n2)cc1 [VE-821] (top concentration 10000 nM)", -0.66],
  ["COc1ccc2[nH]cc(/C=C3\\C(=O)Nc4ccc(NC(=O)CCN5CCCCC5)cc43)c2c1 (top concentration 50000 nM)", 0.28],
  ["CO[C@@H](C(=O)N1Cc2[nH]nc(NC(=O)c3ccc(N4CCN(C)CC4)cc3)c2C1)c1ccccc1 [Danusertib] (top concentration 10000 nM)", -0.36],
  ["Cc1ccc(NC(=O)c2ccc(CN3CCN(C)CC3)cc2)cc1Nc1nccc(-c2cccnc2)n1 [Imatinib] (top concentration 10000 nM)", -0.44],
  ["Cc1cc(Nc2cc(N3CCN(C)CC3)nc(Sc3ccc(NC(=O)C4CC4)cc3)n2)n[nH]1 [Tozasertib] (top concentration 10000 nM)", -0.74]
]}
